Provenance of the data: PubChem BioAssay AID1445

# Tested System: Aminopeptidase N (Plasmodium falciparum (isolate 3D7))
# Method Description: malaria alanyl aminopeptidase activity blockers – biochemical, fluorogenic H-Leu-NHMec substrate, 1536-well (AID 1445);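 further: plate controls were DMSO full reaction for no effect and no enzyme background for full effect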
# Reported Conditions: recombinant M1AAP, H-Leu-NHMec fluorogenic kinetic assay; at 30 µM, stronger effect = higher value unless noted
Screen size: about 220,000 compounds; about 910 (0.41%) were called active. This is one part of a sample in which actives are shown more often than they occur. Potency and affinity values are given separately.
I'd be grateful if you could share measured inhibition for these entries.
The figure you give is taken to be in %; do not add the unit.

Return reported inhibition; argument: "CN1CCc2c(OCc3ccc(F)cc3)cccc2C1=O"
3.15

And what about the molecule "CCn1ccnc1CN(C)Cc1nc(-c2cccc(Cl)c2)no1" ?
-7.75

And what about the molecule "CCC(=O)Oc1oc(-c2ccccc2)nc1C=Nc1ccc(C)cc1" ?
1.55

And what about the molecule "CN1CCN(c2oc(/C=C/c3ccccc3)nc2C#N)CC1" ?
16.3

And what about the molecule "COc1ccccc1N=Cc1nc(-c2ccccc2)oc1OC(C)=O" ?
19.1

And what about the molecule "COc1ccc(-c2nc(C#N)c(NCCCN3CCOCC3)o2)cc1" ?
27.7

And what about the molecule "COCCNc1oc(-c2ccc(C)cc2)nc1C#N" ?
19.1

And what about the molecule "CNc1oc(/C=C/c2ccccc2)nc1C#N" ?
3.76

And what about the molecule "COCCNc1oc(-c2ccccc2Cl)nc1C#N" ?
10.4

And what about the molecule CCCCCCCc1ccc(C2NC(=S)NC3=C2C(=O)c2ccccc23)cc1 (configuration not stated) ?
3.12

And what about the molecule "O=C(OCc1cc([N+](=O)[O-])cc2c1OCOC2)c1ccc2ccccc2n1" ?
-2.61

And what about the molecule "CN(C)CCNc1oc(/C=C/c2ccccc2)nc1C#N" ?
20.7
